system: TO-N3-2 (biotin conjugate); test: pull-down binding Z-score (relative to library population); higher = stronger binding; settings: RNA library: Library-2
Hi, to clarify the labels: yes covers pull-down binding Z-score from -0.1 upward, no covers anything below -0.1.

Check out these entries, answers already filled in.
UGUUCAGUGGGAUUUGGAGA [hsa-mir-8061] | yes
GUGGACAGAGGCAAAACUCUAACUUC [hsa-mir-6078] | yes
AAUGACUCAUAGUCAA [hsa-mir-4475] | no
GGCAGGGGGAGCUGCAGGGCUAUGGGAGGGGCCCCAGCGUCUGA [hsa-mir-1233-2_1233-1] | yes
UGUUUUUGCCAUUAAAAAUAAUGGCAUUAAAAGUAAUGGCAAAAACG [hsa-mir-548al] | no
CGUAGGCGUUAUGAUUUCUGACCUAUG [hsa-mir-379] | yes
CAAACCGGACCUGAGCGUUUUG [hsa-mir-375] | yes
CUAUCAGGCCGGUAG [DMSMaPseq_invitro_SARS-CoV-2_Motif_406] | yes

Task item: pull-down binding Z-score >= -0.1 for "CAAGGGUACACACCACUG" ?
Reply: yes

Task item: // next record AGUUUCUGGAAGUUCUGACAUUCCAGAAACU [hsa-mir-3199-1]
Reply: no

Task item: Entry to check: UCUGCUUUGAUGAAAUAAAGCAGA [hsa-mir-4773-2]
Reply: no

Task item: And CUCGUCUCUACAAAAAAUUGAGACAGG [hsa-mir-4512] ?
Reply: no

Task item: Next record, please: CCCAGCUUUGUGACUGUAAGUGUUGGA [hsa-mir-184]
Reply: yes

Task item: Same thing, different sequence: AGCUGUGUUUUCUGACUCAGUCAUAAU [hsa-mir-365b]
Reply: no

Task item: Query AGAAACCUACUUAUUACAUAGUUUACAUAAGAAGCGUGAU [hsa-mir-1322] next
Reply: yes

Task item: Repeat with GAGCCCUUGCACACCACCAGCCUC [hsa-mir-6845]
Reply: yes

Task item: Please answer likewise for CUCAGGAAUUGGAUAAGCUUUUCUGAG [hsa-mir-5194]
Reply: no

Task item: Thanks! And CGGAUCUCGAGGGUGCUUAUUGUUCGGUCCG [hsa-mir-615] ?
Reply: yes

Task item: Now consider UAAUUCUUGGCUUAUGUGGUUAAUAAUUA [DMSMaPseq_invitro_SARS-CoV-2_Motif_139] and answer again.
Reply: no

Task item: Proceed to UUCCUUGUCUGUAGCCAUGUCUAUGGGCUCUUGAG [hsa-mir-571]
Reply: no

Task item: Next sequence up: GCCUGCCCUGAGUCCCCCAGCAGGU [hsa-mir-3907]
Reply: yes

Task item: And for CUGCAGUGAGUAGGUCUGCCU [hsa-mir-4254] ?
Reply: yes
